Tested on: S. aureus 16207
Reported MIC values are given for each entry in this list.
Readout Label: MIC

compound="CC(C)(C)OC(=O)NCCCNC(=O)c1cc(Cl)c[nH]1 [Compound 28b]" study_target="S. aureus 16207" readout_label=MIC obs_value="> 32 µM"
compound="O=C(NCCCNCCCNCCCNC(=O)c1ccc[nH]1)c1ccc[nH]1 [Compound 18a]" study_target="S. aureus 16207" readout_label=MIC obs_value="> 32 µM"
compound="O=C(NCCCNCCCNCCCNC(=O)c1cc(Br)c(Br)[nH]1)c1cc(Br)c(Br)[nH]1 [Compound 18e]" study_target="S. aureus 16207" readout_label=MIC obs_value="2 to 4 µM"
compound="CN(C)CCCNC(=O)c1ccc[nH]1 [Compound 27a]" study_target="S. aureus 16207" readout_label=MIC obs_value="> 32 µM"
compound="O=C(NCCNCCNC(=O)c1cc(I)c[nH]1)c1cc(I)c[nH]1 [Compound 13f]" study_target="S. aureus 16207" readout_label=MIC obs_value="> 32 µM"

###

Listing of recorded melting point by entry.
Readout Label: melting point

molecule="O=C(NCCCCCCNCCCCCCNC(=O)c1cc(Br)c[nH]1)c1cc(Br)c[nH]1 [Compound 15d]" obs_value="178 to 180 °C"
molecule="O=C(NCCNCCNC(=O)c1cc(Cl)c[nH]1)c1cc(Cl)c[nH]1 [Compound 13b]" obs_value="199 to 201 °C"
molecule="CN(C)CCCNC(=O)c1cc(I)c[nH]1 [Compound 27f]" obs_value="169 to 171 °C"
molecule="O=C(NCCCCNC(=O)c1cc(Cl)c(Cl)[nH]1)c1cc(Cl)c(Cl)[nH]1 [Compound 12c]" obs_value="> 230 °C"
molecule="O=C(NCCCNCCNC(=O)c1cc(I)c[nH]1)c1cc(I)c[nH]1 [Compound 16f]" obs_value="178 to 180 °C"
molecule="O=C(NCCCCCCNCCCCCCNC(=O)c1cc(Cl)c[nH]1)c1cc(Cl)c[nH]1 [Compound 15b]" obs_value="106 to 108 °C"
molecule="O=C(NCCCNCCCCNCCCNC(=O)c1ccc[nH]1)c1ccc[nH]1 [Compound 19a]" obs_value="175 to 176 °C"
molecule="O=C(NCCCNCCCNC(=O)c1cc(Br)c[nH]1)c1cc(Br)c[nH]1 [Compound 14d]" obs_value="73 to 75 °C"
molecule="O=C(NCCCNCCNC(=O)c1cc(Br)c(Br)[nH]1)c1cc(Br)c(Br)[nH]1 [Compound 16e]" obs_value="206 to 208 °C"

###

As an illustration, consider measured MIC for compounds on S. aureus 16207.
Readout Label: MIC

compound="O=C(NCCCNCCNC(=O)c1cc(Cl)c(Cl)[nH]1)c1cc(Cl)c(Cl)[nH]1 [Compound 16c]" readout_label=MIC obs_value="16 to 32 µM"
compound="O=C(NCCCNCCCCNCCCNC(=O)c1cc(I)c[nH]1)c1cc(I)c[nH]1 [Compound 19f]" readout_label=MIC obs_value="16 to 32 µM"
compound="O=C(NCCCCNC(=O)c1cc(Cl)c[nH]1)c1cc(Cl)c[nH]1 [Compound 12b]" readout_label=MIC obs_value="> 32 µM"
compound="O=C(NCCCNCCCNC(=O)c1cc(Cl)c(Cl)[nH]1)c1cc(Cl)c(Cl)[nH]1 [Compound 14c]" readout_label=MIC obs_value="8 to 16 µM"
compound="O=C(NCCNCCNC(=O)c1cc(Br)c[nH]1)c1cc(Br)c[nH]1 [Compound 13d]" readout_label=MIC obs_value="> 32 µM"
compound="O=C(NCCCCNC(=O)c1cc(Br)c(Br)[nH]1)c1cc(Br)c(Br)[nH]1 [Compound 12e]" readout_label=MIC obs_value="> 32 µM"
compound="O=C(NCCCCCCNCCCCCCNC(=O)c1cc(Br)c(Br)[nH]1)c1cc(Br)c(Br)[nH]1 [Compound 15e]" readout_label=MIC obs_value="4 to 8 µM"
compound="O=C(NCCCNCCCNC(=O)c1cc(Br)c[nH]1)c1cc(Br)c[nH]1 [Compound 14d]" readout_label=MIC obs_value="> 32 µM"

###

Below: a set of entries, each annotated with reported melting point.
Readout Label: melting point

compound="O=C(NCCCCCCNCCCCCCNC(=O)c1cc(Cl)c(Cl)[nH]1)c1cc(Cl)c(Cl)[nH]1 [Compound 15c]" readout_label="melting point" obs_value="189 to 190 °C"
compound="O=C(NCCCNCCCCNCCCNC(=O)c1cc(Cl)c[nH]1)c1cc(Cl)c[nH]1 [Compound 19b]" readout_label="melting point" obs_value="194 to 195 °C"
compound="CC(C)(C)OC(=O)NCCCNC(=O)c1cc(Cl)c(Cl)[nH]1 [Compound 28c]" readout_label="melting point" obs_value="158 to 160 °C"
compound="O=C(NCCCNCCCNC(=O)c1cc(Cl)c(Cl)[nH]1)c1cc(Cl)c(Cl)[nH]1 [Compound 14c]" readout_label="melting point" obs_value="189 to 190 °C"

###

Test system: S. aureus 16207
This section presents compounds with their documented MIC values.
Readout Label: MIC

compound="O=C(NCCCNCCNC(=O)c1cc(Br)c(Br)[nH]1)c1cc(Br)c(Br)[nH]1 [Compound 16e]" study_target="S. aureus 16207" readout_label=MIC obs_value="8 to 16 µM"
compound="O=C(NCCCCNC(=O)c1cc(Br)c[nH]1)c1cc(Br)c[nH]1 [Compound 12d]" study_target="S. aureus 16207" readout_label=MIC obs_value="> 32 µM"
compound=NCCNCCNC(=O)c1ccc[nH]1 study_target="S. aureus 16207" readout_label=MIC obs_value="> 32 µM"
compound="O=C(NCCCNCCCNC(=O)c1cc(Br)c(Br)[nH]1)c1cc(Br)c(Br)[nH]1 [Compound 14e]" study_target="S. aureus 16207" readout_label=MIC obs_value="8 to 16 µM"
compound="CN(C)CCCNC(=O)c1cc(I)c[nH]1 [Compound 27f]" study_target="S. aureus 16207" readout_label=MIC obs_value="> 32 µM"
